The values you see were collected from patent US8124637B2.

Test system: KM12
experiment: NCI 60-cell drug screen, one dose
Type: cell-based, human
conditionSummary: Colon Cancer KM12, 1.00E−5 Molar
reportedEndpoint: Growth Percent (%)
Number only, in %; omit the unit.

Below, 5 compounds whose answers are already recorded.
compound	Growth Percent [%]
O=C1c2ccccc2C(=O)c2c1ccc1nc(CN3CCN(c4ccccc4)CC3)[nH]c21 [CL27]	85.80
CCN(CC)Cc1nc2ccc3c(c2[nH]1)C(=O)c1ccccc1C3=O [CL04]	76.89
O=C1c2ccccc2C(=O)c2c1ccc1nc(CN3CCCCC3)[nH]c21 [CL16]	77.40
O=C1c2ccccc2C(=O)c2c1ccc1nc(CN3CCN(c4ccccn4)CC3)[nH]c21 [CL28]	95.03
CN1CCN(Cc2nc3ccc4c(c3[nH]2)C(=O)c2ccccc2C4=O)CC1 [CL24]	55.51

// switching to the query compound
Given item CN(CCc1ccccn1)Cc1nc2ccc3c(c2[nH]1)C(=O)c1ccccc1C3=O [CL07] , the value recorded as its Growth Percent is 89.03

###

# maps each entry to its viability at 72 h, 1 µM
experiment: MTT assay (relative cell survival), H1299
conditionSummary: human, H1299 non-small cell lung cancer cells (PhTERT-SEAP), Relative MTT viability (%), 1 μM
Number only, in %; omit the unit.

compound	readoutNumber
C=CCN1CCN(Cc2nc3ccc4c(c3[nH]2)C(=O)c2ccccc2C4=O)CC1 [CL26]	86
CN(C)Cc1nc2ccc3c(c2[nH]1)C(=O)c1ccccc1C3=O [CL02]	98.9
O=C1c2ccccc2C(=O)c2c1ccc1nc(CN3CCN(c4ccccc4F)CC3)[nH]c21 [CL30]	88.4

Given item CCCN(C)Cc1nc2ccc3c(c2[nH]1)C(=O)c1ccccc1C3=O [CL05] , the value recorded as its viability at 72 h, 1 µM is 93.5

Given item O=C1c2ccccc2C(=O)c2c1ccc1nc(CNCc3cccc(C(F)(F)F)c3)[nH]c21 [CL13] , the value recorded as its viability at 72 h, 1 µM is 114

###

experiment: MTT assay (relative cell survival), H1299
conditionSummary: human, H1299 non-small cell lung cancer cells (PhTERT-SEAP), Relative MTT viability (%), 100 μM
reportedEndpoint: viability at 72 h, 100 µM (%)
Number only, in %; omit the unit.

Below, 2 compounds whose answers are already recorded.
smilesRecord	readoutNumber
COc1cccc(CN(C)Cc2nc3ccc4c(c3[nH]2)C(=O)c2ccccc2C4=O)c1	9.24
O=C1c2ccccc2C(=O)c2c1ccc1nc(CN3CCOCC3)[nH]c21	13.4

Given item `O=C1c2ccccc2C(=O)c2c1ccc1nc(CNCc3ccccc3C(F)(F)F)[nH]c21` , the value recorded as its viability at 72 h, 100 µM is 6.32

Given item `O=C1c2ccccc2C(=O)c2c1ccc1nc(CN3CCN(Cc4ccccc4)CC3)[nH]c21` , the value recorded as its viability at 72 h, 100 µM is 12.7

Given item `O=C1c2ccccc2C(=O)c2c1ccc1nc(CN3CCSC3)[nH]c21` , the value recorded as its viability at 72 h, 100 µM is 5.18

Given item `O=C1c2ccccc2C(=O)c2c1ccc1nc(CN3CCN(c4ncccn4)CC3)[nH]c21` , the value recorded as its viability at 72 h, 100 µM is 28.2

Given item `O=C1c2ccccc2C(=O)c2c1ccc1nc(CN3CCC4(CC3)OCCO4)[nH]c21` , the value recorded as its viability at 72 h, 100 µM is 14.8

Given item `O=C1c2ccccc2C(=O)c2c1ccc1nc(CN3CCN(c4ccccn4)CC3)[nH]c21` , the value recorded as its viability at 72 h, 100 µM is 19.8

Given item `O=C1c2ccccc2C(=O)c2c1ccc1nc(CNCc3ccc4c(c3)OCO4)[nH]c21` , the value recorded as its viability at 72 h, 100 µM is 14.2

Given item `O=C(CCCl)Nc1ccc2c(c1NC(=O)CCCl)C(=O)c1ccccc1C2=O` , the value recorded as its viability at 72 h, 100 µM is 5.85
